A collection of compounds and their measured Efflux ratio
# Tested on: Pseudomonas aeruginosa PAO1 MB9798 (efflux+, IMP-1)
# test-settings: ratio MITC95 PA 9798/MITC95 PA 9799; imipenem at 2 μg/mL
Reply briefly: the number, and no unit.

{"columns": ["smiles-structure", "measured-target", "Efflux ratio"],
 "data": [
  ["Nc1nc2c(-c3ccc(S(=O)(=O)N[C@@H]4CN[C@H](CO)C4)c(S(N)(=O)=O)c3-c3nnn[nH]3)cccc2s1", "Pseudomonas aeruginosa PAO1 MB9798 (efflux+, IMP-1)", 1.00],
  ["NC[C@H](O)CNS(=O)(=O)c1ccc(-c2ccc(N)nc2)c(-c2nn[nH]n2)c1S(N)(=O)=O", "Pseudomonas aeruginosa PAO1 MB9798 (efflux+, IMP-1)", 1.00],
  ["NC[C@H](N)CNS(=O)(=O)c1ccc(-c2cccc3ccc(N)nc23)c(-c2nn[nH]n2)c1S(N)(=O)=O", "Pseudomonas aeruginosa PAO1 MB9798 (efflux+, IMP-1)", 1.00]
]}

**Query** Query: Efflux ratio; subject: NCCOCCNS(=O)(=O)c1ccc(-c2cccc3sc(N)nc23)c(-c2nnn[nH]2)c1S(N)(=O)=O
**Result** 0.50

----------
A collection of molecules and their measured Efflux ratio
# Test system: Pseudomonas aeruginosa PAO1 MB9798 (efflux+, IMP-1)
# test-settings: ratio MITC95 PA 9798/MITC95 PA 9799; imipenem at 2 μg/mL
Reply briefly: the number, and no unit.

{"columns": ["smiles-structure", "number"],
 "data": [
  ["NCCNS(=O)(=O)c1ccc(-c2cccc(C(=O)NC[C@H](N)CO)c2N)c(-c2nn[nH]n2)c1S(N)(=O)=O", 1.00],
  ["CS(=O)(=O)Nc1ccc(-c2ccc(S(=O)(=O)N[C@@H]3CCNC3)c(S(N)(=O)=O)c2-c2nnn[nH]2)cc1", 2.00],
  ["CC(C)(CN)NS(=O)(=O)c1ccc(-c2cccnc2N)c(-c2nn[nH]n2)c1S(N)(=O)=O", 4.00]
]}

**Query** Query: Efflux ratio; subject: Nc1nc2c(-c3ccc(S(=O)(=O)NC[C@H]4CCCN4)c(S(N)(=O)=O)c3-c3nn[nH]n3)cccc2[nH]1
**Result** 1.00

**Query** Query: Efflux ratio; subject: C[C@@H](CCN)NS(=O)(=O)c1ccc(-c2cccc3[nH]c(N)nc23)c(-c2nn[nH]n2)c1S(N)(=O)=O
**Result** 1.00

**Query** Query: Efflux ratio; subject: Nc1nc2c(-c3ccc(S(=O)(=O)NCC4(F)CNC4)c(S(N)(=O)=O)c3-c3nnn[nH]3)cccc2s1.O=CO
**Result** 1.00

**Query** Query: Efflux ratio; subject: NS(=O)(=O)c1ccc(-c2cccc3cn[nH]c23)c(-c2nn[nH]n2)c1S(N)(=O)=O
**Result** 2.00

----------
# Test system: Serratia marcescens expressing IMP-1 (CL5741)
# Type: cell-based
# test-settings: with imipenem 1 μg/ml; 95% inhibition of bacterial growth
property-name: Serratia marcescens (IMP-1) MITC95 (µM)
// units = µM; emit number, no label

Here are 6 compounds together with their reported answers.
{"columns": ["compound", "units", "Serratia marcescens (IMP-1) MITC95"],
 "data": [
  ["NCCNS(=O)(=O)c1ccc(-c2cccc3ncccc23)c(-c2nn[nH]n2)c1S(N)(=O)=O [Example 360]", "µM", 1.563],
  ["NCCNS(=O)(=O)c1ccc(-c2cccc3[nH]c([C@H](N)CO)nc23)c(-c2nn[nH]n2)c1S(N)(=O)=O [Example 330]", "µM", 1.563],
  ["NCCNS(=O)(=O)c1ccc(-c2cccc(NC(=O)[C@H](N)CO)c2)c(-c2nn[nH]n2)c1S(N)(=O)=O [Example 454]", "µM", 3.125],
  ["NCCNS(=O)(=O)c1ccc(-c2cccc(SC[C@@H](O)CN)c2)c(-c2nn[nH]n2)c1S(N)(=O)=O [Example 357]", "µM", 0.7813],
  ["C[C@H](N)CNS(=O)(=O)c1ccc(-c2ccc(N)nc2)c(-c2nn[nH]n2)c1S(N)(=O)=O [Example 479]", "µM", 0.7813],
  ["NCCNC(=O)c1cc(-c2ccc(S(=O)(=O)NCCN)c(S(N)(=O)=O)c2-c2nn[nH]n2)ccc1N [Example 451]", "µM", 0.7813]
]}

Lab note: next compound to report on.
**Query** Quick check: Serratia marcescens (IMP-1) MITC95 on Serratia marcescens expressing IMP-1 (CL5741), item Nc1ccc(-c2ccc(S(=O)(=O)N[C@H]3CN[C@H](CO)C3)c(S(N)(=O)=O)c2-c2nn[nH]n2)cn1 [Example 411] ?
**Result** 1.563

----------
# Test system: Pseudomonas aeruginosa PAO1 MB9798 (efflux+, IMP-1)
# test-settings: ratio MITC95 PA 9798/MITC95 PA 9799; imipenem at 2 μg/mL
property-name: Efflux ratio
Reply briefly: the number, and no unit.

Here are 2 molecules together with their reported answers.
{"columns": ["molecule", "Efflux ratio"],
 "data": [
  ["NC[C@H](N)CNS(=O)(=O)c1ccc(-c2cnc3cc[nH]c3c2)c(-c2nn[nH]n2)c1S(N)(=O)=O [Example 373]", 1.00],
  ["Nc1nc2c(-c3ccc(S(=O)(=O)N4CCN(CCO)CC4)c(S(N)(=O)=O)c3-c3nnn[nH]3)cccc2s1.O=C(O)C(F)(F)F [Example 92]", 4.00]
]}

**Query** Query: Efflux ratio; subject: C[C@H](N)CC(=O)NS(=O)(=O)c1ccc(-c2cccc3[nH]c(N)nc23)c(-c2nn[nH]n2)c1S(N)(=O)=O [Example 208]
**Result** 1.00

----------
# System: Serratia marcescens expressing IMP-1 (CL5741)
# Type: cell-based
# test-settings: with imipenem 1 μg/ml; 95% inhibition of bacterial growth
# Description: Antibiotic Potentiation Activity: Determination of Synergistic Concentration The bacterial strains tested included the clinical strains Escherichia coli expressing NDM-1 (CLB30005, CLB30016), Serratia marcescens expressing IMP-1 (CL5741), and Klebsiella pneumoniae expressing VIM-1 (IHMA599644). Inhibitor activity was measured in the presence and absence of imipenem in a 384-well microplate. […]
A collection of compounds and their measured Serratia marcescens (IMP-1) MITC95
Kindly report the value followed by its unit.

{"columns": ["compound", "Serratia marcescens (IMP-1) MITC95"],
 "data": [
  ["NCCNS(=O)(=O)c1ccc(-c2cccc(C(=O)NC[C@H](O)CN)c2)c(-c2nn[nH]n2)c1S(N)(=O)=O", "1.563 µM"]
]}

**Query** Query: Serratia marcescens (IMP-1) MITC95; subject: NCCNS(=O)(=O)c1ccc(-c2ccnc(CN)c2)c(-c2nn[nH]n2)c1S(N)(=O)=O
**Result** 3.125 µM

**Query** Query: Serratia marcescens (IMP-1) MITC95; subject: NCc1csc(Nc2cccc(-c3ccc(S(=O)(=O)N[C@@H]4CCNC4)c(S(N)(=O)=O)c3-c3nn[nH]n3)c2)n1
**Result** 0.7813 µM

**Query** Query: Serratia marcescens (IMP-1) MITC95; subject: Nc1ccc(-c2ccc(S(=O)(=O)NC3CNC3)c(S(N)(=O)=O)c2-c2nn[nH]n2)cn1
**Result** 0.3906 µM

**Query** Query: Serratia marcescens (IMP-1) MITC95; subject: Nc1ccc(-c2ccc(S(=O)(=O)NC[C@@H]3CCNC3)c(S(N)(=O)=O)c2-c2nn[nH]n2)cn1
**Result** 0.7813 µM

**Query** Query: Serratia marcescens (IMP-1) MITC95; subject: NCc1nc2c(-c3ccc(S(=O)(=O)N[C@@H](CN)CO)c(S(N)(=O)=O)c3-c3nn[nH]n3)cccc2s1
**Result** 1.172 µM

**Query** Query: Serratia marcescens (IMP-1) MITC95; subject: Nc1nc2c(-c3ccc(S(=O)(=O)N[C@@H]4CNC[C@H]4N)c(S(N)(=O)=O)c3-c3nn[nH]n3)cccc2[nH]1
**Result** 1.563 µM

**Query** Query: Serratia marcescens (IMP-1) MITC95; subject: NC[C@@H](N)CNS(=O)(=O)c1ccc(-c2ccc(N)nc2)c(-c2nn[nH]n2)c1S(N)(=O)=O
**Result** 1.563 µM

**Query** Query: Serratia marcescens (IMP-1) MITC95; subject: NCCNS(=O)(=O)c1ccc(-c2cccc(NC[C@H](O)CN)c2)c(-c2nn[nH]n2)c1S(N)(=O)=O
**Result** 1.563 µM

**Query** Query: Serratia marcescens (IMP-1) MITC95; subject: Nc1nc2c(-c3ccc(S(=O)(=O)N[C@@H]4CNC[C@@H]4N)c(S(N)(=O)=O)c3-c3nn[nH]n3)cccc2[nH]1
**Result** 0.7813 µM

**Query** Query: Serratia marcescens (IMP-1) MITC95; subject: N[C@@H]1CNC[C@@H]1NS(=O)(=O)c1ccc(-c2cnc3cc[nH]c3c2)c(-c2nn[nH]n2)c1S(N)(=O)=O
**Result** 1.563 µM

**Query** Query: Serratia marcescens (IMP-1) MITC95; subject: NCCNS(=O)(=O)c1ccc(-c2cccn3ccnc23)c(-c2nn[nH]n2)c1S(N)(=O)=O
**Result** 0.7813 µM

**Query** Query: Serratia marcescens (IMP-1) MITC95; subject: C[C@@H](CN)NS(=O)(=O)c1ccc(-c2cc(F)cc3[nH]c(N)nc23)c(-c2nn[nH]n2)c1S(N)(=O)=O
**Result** 0.7813 µM

**Query** Query: Serratia marcescens (IMP-1) MITC95; subject: NCc1nc2cc(-c3ccc(S(=O)(=O)NC[C@H](O)CN)c(S(N)(=O)=O)c3-c3nn[nH]n3)ccc2s1
**Result** 0.7813 µM

**Query** Query: Serratia marcescens (IMP-1) MITC95; subject: NC[C@H](O)CNS(=O)(=O)c1ccc(-c2cccc3[nH]c(N)nc23)c(-c2nn[nH]n2)c1S(N)(=O)=O
**Result** 0.7813 µM

**Query** Query: Serratia marcescens (IMP-1) MITC95; subject: NCCCNC(=O)c1cccc(-c2ccc(S(=O)(=O)NCCN)c(S(N)(=O)=O)c2-c2nn[nH]n2)c1
**Result** 1.563 µM

**Query** Query: Serratia marcescens (IMP-1) MITC95; subject: NCCNS(=O)(=O)c1ccc(-c2cccc3[nH]c(CCN)nc23)c(-c2nn[nH]n2)c1S(N)(=O)=O
**Result** 0.7813 µM

**Query** Query: Serratia marcescens (IMP-1) MITC95; subject: N[C@@H]1C=C(c2ccc(S(=O)(=O)N[C@@H]3CCNC3)c(S(N)(=O)=O)c2-c2nn[nH]n2)CCC1
**Result** 1.563 µM

**Query** Query: Serratia marcescens (IMP-1) MITC95; subject: NCc1nc2c(-c3ccc(S(=O)(=O)N[C@@H](CN)CO)c(S(N)(=O)=O)c3-c3nn[nH]n3)cccc2[nH]1
**Result** 1.563 µM

**Query** Query: Serratia marcescens (IMP-1) MITC95; subject: NCCN1CC[C@@H](NS(=O)(=O)c2ccc(-c3cccc4[nH]c(N)nc34)c(-c3nn[nH]n3)c2S(N)(=O)=O)C1
**Result** 1.563 µM
